Biological target: human muscarinic M3 receptor (Homo sapiens, UniProt P20309)
Construct: expressed in transfected cells
Sequence (P20309 whole entry): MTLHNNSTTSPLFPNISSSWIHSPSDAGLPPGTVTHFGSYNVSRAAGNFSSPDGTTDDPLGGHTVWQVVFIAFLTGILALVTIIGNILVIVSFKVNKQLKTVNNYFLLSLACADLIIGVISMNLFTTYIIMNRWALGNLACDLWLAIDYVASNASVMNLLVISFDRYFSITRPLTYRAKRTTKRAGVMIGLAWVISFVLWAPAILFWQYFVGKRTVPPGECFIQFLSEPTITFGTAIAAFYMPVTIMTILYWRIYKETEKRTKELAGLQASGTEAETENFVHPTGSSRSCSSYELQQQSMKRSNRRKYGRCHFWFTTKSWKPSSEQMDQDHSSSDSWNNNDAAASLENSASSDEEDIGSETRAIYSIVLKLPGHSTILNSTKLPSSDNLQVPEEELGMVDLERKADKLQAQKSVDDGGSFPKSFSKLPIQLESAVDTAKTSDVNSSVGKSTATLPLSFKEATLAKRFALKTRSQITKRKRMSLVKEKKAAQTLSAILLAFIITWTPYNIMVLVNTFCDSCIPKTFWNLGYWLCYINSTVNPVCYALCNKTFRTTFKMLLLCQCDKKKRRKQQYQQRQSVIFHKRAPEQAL
Assay: Alphascreen Surefire phospho-ERK1/2 functional assay, M3
Format: cell-based
Settings: CHO cells stably expressing human M3; agonist 5 min, 37° C.

compound: Cc1noc(N2CC3CCC2CC3N2CCC(n3cccn3)CC2)n1 (single isomer, unassigned) [7-1 Isomer 2]
pEC50 M3: <4.70

compound: CC(=O)N(CC1(C)CCC1)C1CCN(C2CC3CCC(C2)N3c2nc(C)no2)CC1 (single isomer, unassigned; isomer 1) [12-18 Isomer 1]
pEC50 M3: <4.70

compound: CCN(CC)C(=O)[C@H]1[C@@H]2CN(C3CC4COCC(C3)N4c3nc(C(F)(F)F)no3)C[C@@H]21 (single isomer, unassigned; isomer 2) [12-23 Isomer 2]
pEC50 M3: <4.70

----------
Molecular target: human muscarinic M1 receptor (Homo sapiens, UniProt P11229)
Sequence (P11229 1-460): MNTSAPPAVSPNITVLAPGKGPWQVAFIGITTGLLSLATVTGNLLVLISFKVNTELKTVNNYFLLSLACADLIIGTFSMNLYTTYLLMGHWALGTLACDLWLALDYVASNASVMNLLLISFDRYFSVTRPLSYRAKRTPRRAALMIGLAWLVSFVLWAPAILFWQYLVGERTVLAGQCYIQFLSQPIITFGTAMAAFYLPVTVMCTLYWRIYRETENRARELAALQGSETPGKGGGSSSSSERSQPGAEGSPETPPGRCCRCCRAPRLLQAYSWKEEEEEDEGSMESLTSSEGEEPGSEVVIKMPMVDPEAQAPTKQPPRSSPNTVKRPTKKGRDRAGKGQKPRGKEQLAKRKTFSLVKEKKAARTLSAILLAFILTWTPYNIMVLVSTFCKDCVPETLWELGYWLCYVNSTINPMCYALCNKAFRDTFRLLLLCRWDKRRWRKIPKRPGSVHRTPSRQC
Experiment: Alphascreen Surefire phospho-ERK1/2 functional assay, M1
Format: cell-based
Conditions: CHO, read-out: % Emax cf. ACh (M1), CHO cells stably expressing human M1; Emax relative to ACh
observed_property: Emax (%)

compound: Cc1noc(N2CCCC(N3CCC4(CC3)C(=O)Nc3ccccc34)CC2)n1 (single isomer, unassigned) [10-6 Isomer 1]
observed_property: Emax
units_symbol: %
measured_value: 76
//
compound: Cc1noc(N2CC3(CC(N4CCC(n5cccn5)CC4)C3)C2)n1
observed_property: Emax
units_symbol: %
measured_value: 48
//
compound: Cc1noc(N2CC3CCC2CC3N2CCC(n3cccn3)CC2)n1 (single isomer, unassigned) [7-1 Isomer 1]
observed_property: Emax
units_symbol: %
measured_value: 18
//
compound: Cc1noc(N2C3CCCC2CC(N2CCC(n4cccn4)CC2)C3)n1 (single isomer, unassigned) [8-1 Isomer 2]
observed_property: Emax
units_symbol: %
measured_value: 24

----------
Target: human muscarinic M1 receptor (Homo sapiens, UniProt P11229)
Sequence (P11229 1-460): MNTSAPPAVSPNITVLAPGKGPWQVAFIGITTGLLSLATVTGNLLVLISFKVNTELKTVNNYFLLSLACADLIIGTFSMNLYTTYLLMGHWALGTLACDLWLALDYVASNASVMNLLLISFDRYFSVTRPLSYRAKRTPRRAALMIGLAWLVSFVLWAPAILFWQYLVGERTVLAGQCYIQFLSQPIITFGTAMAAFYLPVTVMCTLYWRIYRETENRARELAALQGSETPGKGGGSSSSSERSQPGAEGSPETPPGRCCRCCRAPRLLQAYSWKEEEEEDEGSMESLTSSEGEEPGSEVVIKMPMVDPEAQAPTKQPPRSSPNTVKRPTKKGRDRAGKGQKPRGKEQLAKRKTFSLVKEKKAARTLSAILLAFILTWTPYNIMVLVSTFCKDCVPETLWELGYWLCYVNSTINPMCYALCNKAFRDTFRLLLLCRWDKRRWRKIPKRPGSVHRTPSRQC
Assay: Alphascreen Surefire phospho-ERK1/2 functional assay, M1
Assay type: cell-based
Conditions: CHO cells stably expressing human M1; agonist 5 min, 37° C.; read-out: pEC50 M1 (converted)
Values of EC50 strictly less than 0.4 µM map to 1, and values of at least 0.4 µM map to 0.

compound: Cc1noc(N2C3CCC2CC(N2CCC4(CC2)CNC(=O)O4)C3)n1 (single isomer, unassigned) [6-4 Isomer 1]
assigned_label: 1
--
compound: Cc1noc(N2CCC(N3CCC(n4cccn4)CC3)CC2)n1 [Example 4-1]
assigned_label: 0
--
compound: Cc1noc(N2CC3(CC(N4CCC(n5cccn5)CC4)C3)C2)n1 [Example 1-1]
assigned_label: 0
--
compound: Cc1noc(N2CCCC(N3CCC4(CC3)CNC(=O)O4)CC2)n1 (racemic) [10-3 Racemic mixture]
assigned_label: 1
--
compound: Cc1noc(N2CCC3(CC(N4CCC(n5cccn5)CC4)C3)C2)n1 (single isomer, unassigned) [2-1 Isomer 2]
assigned_label: 0
--
compound: Cc1noc(N2CC3CCC2CC3N2CCC(n3cccn3)CC2)n1 (single isomer, unassigned) [7-1 Isomer 1]
assigned_label: 0
--
compound: Cc1noc(N2C3CCC2CC(N2CCC(n4cccn4)CC2)C3)n1 (single isomer, unassigned) [6-1 Isomer 1]
assigned_label: 0
--
compound: Cc1noc(N2C3CCC2CC(N2CCC4(CC2)CNC(=O)O4)C3)n1 (single isomer, unassigned) [6-4 Isomer 2]
assigned_label: 1
--
compound: Cc1noc(N2CC3(CCC(N4CCC(n5cccn5)CC4)C3)C2)n1 (single isomer, unassigned) [3-1 Isomer 2]
assigned_label: 0
--
compound: Cc1noc(N2C3CCC2CC(N2CCC(C(=O)NC4(C(F)(F)F)CCC4)CC2)C3)n1 (single isomer, unassigned) [12-7 Isomer 2]
assigned_label: 0
--
compound: CNC(=O)N1CCC[C@H]1C1CCN(C2CCCN(c3nc(C)no3)CC2)CC1 (single isomer, unassigned) [10-12 Isomer 1]
assigned_label: 0
--
compound: CCN(C(C)=O)C1CCN(C2CCCN(c3nc(C)no3)CC2)CC1 (racemic) [10-11 Racemic mixture]
assigned_label: 0
--
compound: Cc1noc(N2C3CCCC2CC(N2CCC(n4cccn4)CC2)C3)n1 (single isomer, unassigned) [8-1 Isomer 2]
assigned_label: 0
--
compound: Cc1noc(N2CC3CCC2CC3N2CCC3(CC2)CNC(=O)C3)n1 (single isomer, unassigned) [12-1 Isomer 2]
assigned_label: 1
--
compound: Cc1noc(N2CC3CCC2CC3N2CCC(n3cccn3)CC2)n1 (single isomer, unassigned) [7-1 Isomer 2]
assigned_label: 0
